- System: MDA-N
- Experimental Protocol: NCI tumour cell line growth inhibition, 48 h
Quantity: TGI

Look over these answered cases.
{"Compound": "O=C(O)c1cc(Nc2c(O)c3c(c(O)c2Cl)C(=O)C=CC3=O)ccc1O", "TGI": "> 10 µM"}
{"Compound": "Nc1cc2ncnc(Nc3cccc(Br)c3)c2cn1", "TGI": "> 100 µM"}
{"Compound": "O=c1oc2ccccc2c(O)c1C(c1ccc(O)cc1)c1c(O)c2ccccc2oc1=O", "TGI": "> 100 µM"}
{"Compound": "CC(C)CCCC(C)[C@H]1CC[C@H]2NCCCC[C@]12C (stereo partly specified)", "TGI": "3.99 µM"}
{"Compound": "CC(=O)Nc1ccc(/C=C/[N+](=O)[O-])cc1", "TGI": "6.59 µM"}

**Query** Name the recorded TGI for COc1ccc(C[C@H]2COC(=O)[C@@H]2Cc2ccccc2)cc1OC .
**Result** > 100 µM

---

- Tested on: EKVX NSCLC
- Experimental Protocol: NCI tumour cell line growth inhibition, 48 h
Recorded TGI, one value per entry.

Look over these answered cases.
{"Compound": "OC1(C(O)(c2ccc(-c3ccccc3)cc2)c2ccc(-c3ccccc3)cc2)CCCCC1", "TGI": "> 100 µM"}
{"Compound": "CCCCCCCCCCC/C(=N/O)c1ccc(O)c2ncccc12", "TGI": "20.1 µM"}
{"Compound": "CC(C)(C)C(=O)O[C@H]1C=C[C@@H](O)[C@@H]2[C@H]1[C@@H]1C=C[C@H]2C1", "TGI": "> 100 µM"}
{"Compound": "CCn1c(O)c(C(=O)NC(C)c2ccc([N+](=O)[O-])cc2)c(=O)n(CC)c1=S (stereo not given)", "TGI": "12.7 µM"}
{"Compound": "O=C(O)c1ccc2c(c1)Cc1cc([N+](=O)[O-])ccc1-2", "TGI": "> 100 µM"}

**Query** Name the recorded TGI for CC(=O)OCC1(CNc2nc(N)ncc2C#N)CC(CCc2ccccc2)C1 (stereo not given) .
**Result** > 100 µM

**Query** Name the recorded TGI for COc1ccc(OC)c(-c2cn3c(n2)sc2ccccc23)c1 .
**Result** > 100 µM

**Query** Name the recorded TGI for COC(=O)C(CCS(=O)(=O)CC(=O)C(=O)Nc1cccc(C(C)=O)c1)C(=O)OC .
**Result** > 100 µM

**Query** Name the recorded TGI for COc1cc(Nc2nc3cc(N)cc(N)c3nc2-c2ccccc2)cc(OC)c1 .
**Result** 64.4 µM

**Query** Name the recorded TGI for Cc1ccccc1-c1c(N)nc(NC#N)nc1C(=O)Nc1ccccc1 .
**Result** > 100 µM

**Query** Name the recorded TGI for CCC(=O)Nc1ccc(N2C(=O)/C(=C/c3ccc(O)c(OC)c3)N=C2c2ccccc2)cc1 .
**Result** 46.4 µM

**Query** Name the recorded TGI for Oc1ccc(/C=N\Nc2ccccn2)c(O)c1 .
**Result** 7.46 µM

**Query** Name the recorded TGI for CCOC(=O)CC(=O)Sc1ccccc1 .
**Result** 74 µM

**Query** Name the recorded TGI for COc1ccc(C(=O)/C=C/c2ccc(OCCCOc3ccc(/C=C/C(=O)c4ccc(OC)c(OC)c4)cc3)cc2)cc1OC .
**Result** > 100 µM

**Query** Name the recorded TGI for CCCCCCCCCCC[N+]1(Cc2ccccc2)CC2CCN(Cc3ccccc3)CC2C1 (stereo not given) .
**Result** 1.37 µM

**Query** Name the recorded TGI for CC(=O)Nc1ccc(C(=O)N2N=C(C)/C(=C/c3ccccc3O)C2=O)cc1 .
**Result** > 100 µM

**Query** Name the recorded TGI for CC(=O)OC1C(=O)C(O)C(C)OC1O[C@@H]1C[C@@]2(C)[C@@H]3CC=C4[C@@H](C[C@H](O)C(=O)C4(C)C)[C@]3(C)C(=O)C[C@]2(C)[C@H]1[C@@](C)(O)C(=O)/C=C/C(C)(C)O (stereo not given in full) .
**Result** > 7.55 µM

**Query** Name the recorded TGI for Cc1ccc(NC(=O)CC2C(=O)Nc3ccccc3S2=O)cc1C (stereo not given) .
**Result** > 100 µM

**Query** Name the recorded TGI for S=c1oc(CCCCCCCCc2nn(CNc3ccc(Cl)cc3)c(=S)o2)nn1CNc1ccc(Cl)cc1 .
**Result** > 100 µM

**Query** Name the recorded TGI for CC(=O)OC[C@H]1O[C@@H](n2ccc(=O)[nH]c2=O)[C@H](OC(C)=O)[C@@H]1OC(C)=O .
**Result** > 100 µM
